For each entry below, report its inhibition value.
Assay: blockers of RIG-like receptor reporter activation – cell-based, Sendai virus stimulus, luciferase, 10K MLSCN set, TLR/RLR signaling modifier project, primary screen (AID 602276);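 further: firefly luciferase from ISG56 promoter only with Renilla not read in this screen; 0% = Sendai virus plus DMSO and 100% = medium plus DMSO without virus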
Settings: HEK293 RL24 IRF3 luciferase reporter, at 10 µM, active compounds read high
// note: answer is a bare numeric in %

Query: What value of inhibition has been recorded for this entry: CC(C)C1N=C2c3ccccc3N=C(SCC(=O)NCCc3ccc(S(N)(=O)=O)cc3)N2C1=O (stereo not given)
Reply: 22

Query: What value of inhibition has been recorded for this entry: `CCc1nnc(NC(=O)c2ccc(-c3cccc(C(F)(F)F)c3)o2)s1`
Reply: -0.00167

Query: What value of inhibition has been recorded for this entry: `COc1cccc(CNc2cccc3cccnc23)c1O`
Reply: 13

Query: What value of inhibition has been recorded for this entry: Cc1ccc(NC2=NC(c3ccccc3)n3c(nc(C)cc3=O)N2)cc1 (stereo not given)
Reply: 14.2

Query: What value of inhibition has been recorded for this entry: `O=C(Nc1ccc(N2CCCC2=O)cc1)c1cccc(F)c1`
Reply: -49

Query: What value of inhibition has been recorded for this entry: `COc1cccc(-c2cc3nc4c(c(N5CCC6(CC5)OCCO6)n3n2)CCCC4)c1`
Reply: -10.9

Query: What value of inhibition has been recorded for this entry: `COc1cccc2cc(C(=O)N3CCN(C45CC6CC(CC(C6)C4)C5)CC3)c(=O)oc12`
Reply: 5.81

Query: What value of inhibition has been recorded for this entry: CN(C)CCOC(c1ccccc1)c1ccccc1 (tested in a mixture with another compound)
Reply: 23.9

Query: What value of inhibition has been recorded for this entry: `Brc1ccc(-c2nnc3sc(CN4CCC5(CC4)OCCO5)cn23)cc1`
Reply: 11.1

Query: What value of inhibition has been recorded for this entry: `CCOC(=O)c1cc(-c2ccc3c(c2)OCO3)nc2onc(C)c12`
Reply: -6.27

###

Assay: reduction of polyQ htt aggregates in cells – imaging, exon1htt(103Q)mCFP cells, high-content imaging, primary screen (AID 483);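 further: compound exposure lasted 3 days before fixation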
Settings: exon1htt(103Q)mCFP cell line, aggregate imaging, at 2 µM; active compounds read high
For each entry below, report its inhibition of aggregation value.
// note: answer is a bare numeric in %

Query: What value of inhibition of aggregation has been recorded for this entry: `Cc1nnc(C)n1/N=C/c1cccc(Oc2ccccc2)c1`
Reply: 0.1

Query: What value of inhibition of aggregation has been recorded for this entry: `O=c1oc2ccccc2n1CCn1c2ccccc2c2nc3ccccc3nc21`
Reply: -10.6

Query: What value of inhibition of aggregation has been recorded for this entry: CCc1cccc2c3c([nH]c12)C(CC)(CC(=O)O)OCC3 (stereo not given)
Reply: 3.6

Query: What value of inhibition of aggregation has been recorded for this entry: Cc1ccc(S(=O)(=O)N2CCCC2C(=O)OCc2ccco2)cc1 (stereo not given)
Reply: -7.8

Query: What value of inhibition of aggregation has been recorded for this entry: COc1ccc(N2C(=O)CC(N3CCN(S(=O)(=O)c4c(F)cccc4F)CC3)C2=O)cc1OC (stereo not given)
Reply: 1

Query: What value of inhibition of aggregation has been recorded for this entry: `Cc1c(C(=O)OC(C)C)[nH]c2c1C(=O)CCC2`
Reply: 15.4

Query: What value of inhibition of aggregation has been recorded for this entry: `Cc1ccccc1CS(=O)(=O)CCC(=O)N1CCN(c2ccc(N3CCOCC3)nn2)CC1`
Reply: -19.9

Query: What value of inhibition of aggregation has been recorded for this entry: `CN(CCC#N)C(=O)COC(=O)c1ccc(Cl)c(S(N)(=O)=O)c1`
Reply: 17.6

Query: What value of inhibition of aggregation has been recorded for this entry: `O=C(CCn1c(=O)sc2ccccc21)NC1=NCCS1`
Reply: 8.6

Query: What value of inhibition of aggregation has been recorded for this entry: `O=C(Cn1nc(-c2ccc(Cl)cc2)ccc1=O)NCCCN1CCN(Cc2ccccc2)CC1`
Reply: -12.5

Query: What value of inhibition of aggregation has been recorded for this entry: `O=C(c1ccco1)N1CCN(c2c(-c3ccccc3)c3cc(Cl)ccc3[nH]c2=O)CC1`
Reply: -2.2

Query: What value of inhibition of aggregation has been recorded for this entry: `O=C(O)c1[nH]nc2c1COc1ccccc1-2`
Reply: -9.9

Query: What value of inhibition of aggregation has been recorded for this entry: O=C1CC(c2ccco2)CC(O)=C1C=NCC1NCCc2ccccc21 (stereo not given)
Reply: 5.8

Query: What value of inhibition of aggregation has been recorded for this entry: `O=C(Nc1cccc(C(F)(F)F)c1)c1cccnc1N1CCCC1`
Reply: -13

Query: What value of inhibition of aggregation has been recorded for this entry: CC(C(=O)N1CC2(C)CC1CC(C)(C)C2)N1C(=O)c2ccccc2C1=O (stereo not given)
Reply: 14.3

Query: What value of inhibition of aggregation has been recorded for this entry: O=C1c2cccnc2C(O)N1Cc1ccc(F)cc1 (stereo not given)
Reply: 13.7

Query: What value of inhibition of aggregation has been recorded for this entry: `COc1ccc(-c2noc(-c3cc(Cl)ccc3Cl)n2)cc1OC`
Reply: -10.9

Query: What value of inhibition of aggregation has been recorded for this entry: `CCOC(=O)c1ccc(Oc2nc(NC)nc(OC)n2)cc1`
Reply: -13.2

Query: What value of inhibition of aggregation has been recorded for this entry: `CCc1nc(C)c(-c2ccccc2)c(=O)[nH]1`
Reply: 5.5

Query: What value of inhibition of aggregation has been recorded for this entry: `CCOc1ccc(NC(=O)CN2CCN(CC(=O)Nc3ccc(F)c(F)c3)CC2)cc1`
Reply: -0.9

Query: What value of inhibition of aggregation has been recorded for this entry: `Cc1ccccc1-c1nc(CN2CCC(C(=O)NCCCN3CCOCC3)CC2)c(C)o1`
Reply: -16.7

Query: What value of inhibition of aggregation has been recorded for this entry: `CC(=O)N(c1ccc(N(C(C)=O)S(=O)(=O)c2cccs2)cc1)S(=O)(=O)c1cccs1`
Reply: 11.2

Query: What value of inhibition of aggregation has been recorded for this entry: COc1ccc(C2CC(=O)c3cnc(NC(=O)c4ccccc4OC)nc3C2)c(OC)c1 (stereo not given)
Reply: 15

Query: What value of inhibition of aggregation has been recorded for this entry: CCCCC(CC)C(=O)Nc1ccc(Cl)cn1 (stereo not given)
Reply: 4.5

Query: What value of inhibition of aggregation has been recorded for this entry: `O=S(=O)(NCCSc1ccccc1)c1cccs1`
Reply: -14.5

Query: What value of inhibition of aggregation has been recorded for this entry: `CC(=O)Nc1ccc(NC(=O)c2ccccc2F)cc1`
Reply: 1.3

Query: What value of inhibition of aggregation has been recorded for this entry: `Clc1ccc(SCCn2ccnc2)cc1`
Reply: -7.9

Query: What value of inhibition of aggregation has been recorded for this entry: `O=C(Nc1ccc(Cl)c(Cl)c1)Nc1cc(C(=O)N2CCOCC2)ccc1N1CCCCC1`
Reply: -5.4

Query: What value of inhibition of aggregation has been recorded for this entry: COc1cc(-c2nnc(SCC(=O)c3cc(C)n(CC4CCCO4)c3C)o2)cc(OC)c1OC (stereo not given)
Reply: 23.1

Query: What value of inhibition of aggregation has been recorded for this entry: N#CC(C(=O)C1CCCCC1)c1nc2ccccc2[nH]1 (stereo not given)
Reply: -11.3

Query: What value of inhibition of aggregation has been recorded for this entry: `CCN(c1ccccc1)S(=O)(=O)c1ccc(F)cc1C`
Reply: -4.7

Query: What value of inhibition of aggregation has been recorded for this entry: CCCC(C)C1C(C#N)=C(N)Oc2cc(C)oc(=O)c21 (stereo not given)
Reply: -2.4

Query: What value of inhibition of aggregation has been recorded for this entry: `Cc1cccc(N2CN=c3s/c(=C\c4ccncc4)c(=O)n3C2)c1`
Reply: 13.2

Query: What value of inhibition of aggregation has been recorded for this entry: `CCCCN(CCCNC(=O)C1CCN(S(=O)(=O)CC)CC1)c1ccccc1`
Reply: -2.7

Query: What value of inhibition of aggregation has been recorded for this entry: `O=C(CNS(=O)(=O)c1ccc(Br)s1)N1CCCC1`
Reply: -1

Query: What value of inhibition of aggregation has been recorded for this entry: `O=C1CN(c2ccccc2F)C(=O)CN1c1ccccc1F`
Reply: -2.1

Query: What value of inhibition of aggregation has been recorded for this entry: COC(=O)c1ccc(N2C(=O)CC(N3CCN(C(=O)c4ccco4)CC3)C2=O)cc1 (stereo not given)
Reply: 0.2

Query: What value of inhibition of aggregation has been recorded for this entry: `CC(C)(C)N(Cc1cc2ccccc2[nH]c1=O)C(=O)C1CCCCC1`
Reply: -4.5

Query: What value of inhibition of aggregation has been recorded for this entry: `CCOC(=O)C1CCN(c2c(NCCCN(CC)c3ccccc3)c(=O)c2=O)CC1`
Reply: 8.3

Query: What value of inhibition of aggregation has been recorded for this entry: `CCN1CCN(c2c(Cl)cccc2NC(=O)c2ccc3c(c2)OCCO3)CC1`
Reply: -4.5

Query: What value of inhibition of aggregation has been recorded for this entry: `Cc1nc(C)c(C(=O)Nc2ccc(C)c(F)c2)o1`
Reply: 19.4

Query: What value of inhibition of aggregation has been recorded for this entry: `CCOC(=O)N1CCC(O)(c2cc(C)c(C)cc2C)CC1`
Reply: -15.6

Query: What value of inhibition of aggregation has been recorded for this entry: `CCOC(=O)N1CCN(c2cc3[nH]c(=S)[nH]c3cc2F)CC1`
Reply: -5.7

Query: What value of inhibition of aggregation has been recorded for this entry: `O=C(O)c1c[nH]c2ccc(S(=O)(=O)N3CCN(c4ccc(F)cc4)CC3)cc2c1=O`
Reply: 20.5

Query: What value of inhibition of aggregation has been recorded for this entry: `CN(C)S(=O)(=O)n1cnc(-c2ccccc2)c1-c1ccccc1`
Reply: 10.1
